// values below are reported TGI
Test system: NCI-H23 lung
test-name: NCI tumour cell line growth inhibition, 48 h
Quick reminder: number only, in µM, skip the unit.

Example results:
CCOC(=O)CC[C@@H](NC(=O)c1ccc(N[C@@H]2c3cc4c(cc3C(c3cc(OC)c(O)c(OC)c3)C3C(=O)OC[C@@H]32)OCO4)cc1)C(=O)OCC (some centres undefined): 0.0424
Cc1nc2cccc(NCc3ccc(C(=O)NO)cc3)c2c(=O)n1-c1ccccc1: 3.18
COc1cc2c(/C=C3/C(=O)Nc4ccccc43)c(Cl)n(Cc3ccccc3[N+](=O)[O-])c2cc1C: 22.3

Kindly consider the entry below.
**Query** Give its TGI value. Item: `COC(=O)c1c(C(=O)OC)c2cc(C(=O)c3ccccc3)ccn2c1Cl`
**Result** 88.1

----------
Tested on: COLO 205 colon
test-name: NCI tumour cell line growth inhibition, 48 h
// values below are reported GI50

Example results:
Nc1ccccc1C#C/C=C\C#Cc1ccc(Cl)cc1Cl: 23.8 µM
COc1cc2c(/C=C3/C(=O)Nc4ccccc43)c(Cl)n(Cc3ccccc3[N+](=O)[O-])c2cc1C: 3.18 µM
CC1=Cc2cc3[n-]c(cc4nc(cc5[n-]c(cc1n2)cc5C)C(C)=C4CCC(=O)O)c(CCC(=O)O)c3C.[Pd+2]: 16.8 µM
CC[N+](CC)(CC)CCCn1c2c(c3ccccc3c1=O)C(=O)c1ccccc1-2: 23.1 µM
O=C1C=Cc2ccccc2/C1=C/c1[nH]c(=O)[nH]c1O: 3.59 µM

**Query** Give its GI50 value. Item: S=C(Nc1ccc(Cl)cc1)Nc1ccc(Cl)cc1 (tested in a mixture with another compound)
**Result** 1.9 µM

**Query** Would you mind doing `C/C=C(\C)C(=O)O[C@H]1C=CC(=O)O[C@H]1CNC(=O)[C@H](C)O` as well?
**Result** 12.6 µM

----------
System: A549 NSCLC
test-name: NCI tumour cell line growth inhibition, 48 h
// values below are reported TGI

Example results:
CC(C)(C)N1NC1C1NN1C(C)(C)C (stereo not given): > 100 µM
C[N+](C)(CCCCCC[N+](C)(C)CCCN1C(=O)c2cc3ccccc3cc2C1=O)CCCN1C(=O)c2ccccc2C1=O: > 37.5 µM
CCOC(=O)CCC(NC(=O)c1ccc(Nc2nc3cc(C(F)(F)F)ccc3nc2-c2ccccc2)cc1)C(=O)OCC (stereo not given): > 100 µM

**Query** Form field - read-out: TGI; system: A549 NSCLC; submitted item: C=C1C(=O)OC2C1C(OC(=O)/C(C)=C/C)CC1(C)C(=O)CCC(=C)C21 (stereo not given)
**Result** 43.7 µM

**Query** Would you mind doing `CN(C)CCO/N=C1/C=C2CC[C@H]3[C@@H]4CC[C@H](O)[C@@]4(C)CC[C@@H]3[C@@]2(C)CC1` as well?
**Result** > 65.2 µM

----------
// values below are reported TGI
Tested on: SW-620 colon
test-name: NCI tumour cell line growth inhibition, 48 h

CC(=O)OC(C)(C)/C=C/C(=O)[C@](C)(O)[C@H]1[C@H](O)C[C@@]2(C)[C@@H]3CC=C4[C@@H](C[C@H](O)C(=O)C4(C)C)[C@]3(C)C(=O)C[C@]12C: 7.54 µM
NC1CC(=O)c2cc(Br)sc21 (stereo not drawn): > 100 µM
COc1cccc(-c2nc3c(C(=O)NCCN(C)C)cccc3[nH]2)c1: > 54.6 µM
CC(=O)Nc1ccc(C2[C@H]3C(=O)N(c4ccc(Cc5ccc(N6C(=O)[C@@H]7ON(c8ccccc8)C(c8ccc(NC(C)=O)cc8)[C@@H]7C6=O)cc5)cc4)C(=O)[C@H]3ON2c2ccccc2)cc1 (stereo partly drawn): > 100 µM
CCOC(=O)n1cncc1CC(NC(=O)Cc1c(C(=O)C=C(C)C)[nH]c2ccccc12)C(=O)OC (stereo not drawn): > 100 µM
COc1cc2c(/C=C3/C(=O)Nc4ccccc43)c(Cl)n(Cc3ccccc3[N+](=O)[O-])c2cc1C: 34.5 µM
CCOC(=O)C(=O)Nc1c(N(CC)CC)n2ccccc2nc1=O: > 100 µM

**Query** Give its TGI value. Item: COC1OC(CO)C(O)C(OC(=O)c2cc(O)c(O)c(O)c2)C1OC(=O)c1cc(O)c(O)c(O)c1 (stereo not drawn)
**Result** > 100 µM
